A collection of compounds and their measured pEC50
Target: segments of rabbit duodenum (Oryctolagus cuniculus, UniProt G1T803)
Sequence (G1T803 1-400): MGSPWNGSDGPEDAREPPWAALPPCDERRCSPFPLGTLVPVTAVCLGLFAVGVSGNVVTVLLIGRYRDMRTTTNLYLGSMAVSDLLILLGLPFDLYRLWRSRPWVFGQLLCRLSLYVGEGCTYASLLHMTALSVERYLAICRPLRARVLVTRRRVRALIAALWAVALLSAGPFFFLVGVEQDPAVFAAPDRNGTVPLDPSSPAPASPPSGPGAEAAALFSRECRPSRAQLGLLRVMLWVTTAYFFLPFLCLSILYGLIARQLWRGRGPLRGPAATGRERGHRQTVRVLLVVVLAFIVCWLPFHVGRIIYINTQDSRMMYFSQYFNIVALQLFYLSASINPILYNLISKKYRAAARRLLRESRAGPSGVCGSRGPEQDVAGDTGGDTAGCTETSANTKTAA
Assay: Rabbit duodenal smooth muscle strip tissue bath assay
Format: cell-based
Settings: negative logarithm of the dose giving 50% of the maximal response to motilin; isotonic contraction of rabbit duodenum segments
Experimental: The contractile response of segments of rabbit duodenum was determined isotonically in the tissue bath according to the procedure of Depoortere et at., J. Gastrointestinal Motility, 1, 150-159 (1989). The experimental protocol consisted of an equilibration period of 1 hour; a challenge with 10^-4 M acetylcholine followed by a wash-out period; a cumulative dose-response curve of a compound with, at the end, the addition of 10^-7 M motilin; and finally 10^-4 M acetylcholine. […]
Square brackets hold non-standard residues; d marks the D form. Peptide text beside a SMILES is read from it. * marks the point of attachment. X1 = C[N+](C)(C)[C@@H](Cc1ccccc1)C(=O)*
Form field (numeric): enter value without unit.

CC[C@H](C)[C@H](NC(=O)[C@@H]1CCCN1C(=O)[C@@H](NC(=O)[C@@H](N)Cc1ccccc1)C(C)C)C(=O)N[C@@H](Cc1ccccc1)C(=O)N[C@H](C(=O)N[C@@H](Cc1ccc(O)cc1)C(=O)N[C@H](C)C(=O)N[C@@H](CCC(=O)O)C(=O)N[C@@H](CC(C)C)C(=O)N[C@@H](CCC(N)=O)C(=O)N[C@H](CCCNC(=N)N)C(=O)N[C@@H](CC(C)C)C(=O)N[C@@H](CCC(N)=O)C(=O)O)[C@@H](C)O [[D-Ala^8, D-Arg^12, Leu^13]pMOT(1-14)] (H-FVPIFTY[dA]ELQ[dR]LQ-OH)    7.09

pEC50 value, target or system segments of rabbit duodenum (Oryctolagus cuniculus, UniProt G1T803), for CC[C@H](C)[C@H](NC(=O)[C@@H]1CCCN1C(=O)[C@@H](NC(=O)[C@H](Cc1ccccc1)[N+](C)(C)C)C(C)C)C(=O)N[C@@H](Cc1ccccc1)C(=O)N[C@H](C(=O)N[C@@H](Cc1ccc(O)cc1)C(=O)NCC(=O)N[C@@H](CCC(=O)O)C(=O)N[C@@H](CC(C)C)C(=O)N[C@@H](CCC(N)=O)C(=O)N[C@H](CCCNC(=N)N)C(=O)N[C@@H](CC(C)C)C(=O)N[C@@H](CCCCN)C(N)=O)[C@@H](C)O (X1-VPIFTYGELQ[dR]LK-NH2) : 7.60
